// provenance: PubChem BioAssay (Tox21)

# protocol notes: qHTS assay to identify small molecule antagonists of the peroxisome proliferator-activated receptor gamma (PPARg) signaling pathway - cell viability counter screen (AID 743194); also: nearly all actives have a fitted effect of over 55% in size
# assay conditions: PPARg-bla HEK293H viability, CellTiter-Glo luminescence, 17 h, co-treated with 50 nM rosiglitazone; series mostly up to 62.6 µM
Results filed as inconclusive are left out. Activity calls are given as the source filed them. Calls follow the shape of the dose curve; as a rule, active = well fitted cell-killing curve with a large enough effect in the repeat runs; inconclusive = weak or mixed curves, or effect the other way; inactive = no such curve, though single readings can be large or run the other way.
recorded metric: activity change, negative = cytotoxicity

Reference set (5 entries):
[
  {
    "compound": "CC1(C)S[C@@H]2[C@H](NC(=O)C(C(=O)O)c3ccccc3)C(=O)N2[C@H]1C(=O)O (stereo partly drawn)",
    "measured value": "inactive"
  },
  {
    "compound": "CCCCCCC",
    "measured value": "inactive"
  },
  {
    "compound": "Nc1ccc(Oc2ccc(N)c(N)c2)cc1",
    "measured value": "inactive"
  },
  {
    "compound": "O=C(O)[C@@H](O)[C@H](O)[C@H](O)[C@@H](O)C(=O)O",
    "measured value": "inactive"
  },
  {
    "compound": "COc1cc(C)ccc1C(C)C",
    "measured value": "inactive"
  }
]

Q: Look up activity change, negative = cytotoxicity: CC(Oc1c(Cl)cccc1Cl)C1=NCCN1 (stereo not drawn)
Ans: inactive

Q: So what's the measured activity change, negative = cytotoxicity for this one? CC(C)C[C@H](NC(=O)OCC1c2ccccc2-c2ccccc21)C(=O)O
Ans: inactive

Q: # lookup: activity change, negative = cytotoxicity of COc1ccccc1N1CCN(CCCNc2cc(=O)n(C)c(=O)n2C)CC1
Ans: inactive

Q: For the compound shown here, COC(=O)c1ccc(OC)cc1 , give the reported activity change, negative = cytotoxicity.
Ans: inactive

Q: I am curious: what activity change, negative = cytotoxicity value has been reported for Cc1cc(NS(=O)(=O)c2ccc(N)cc2)nc(C)n1 ?
Ans: inactive
